This collection of values is drawn from PubChem BioAssay AID1996.

Here, each record is paired with measured solubility kinetic data.
Details: buffer; pH 7.4; 200.0 µM

Here is how some compounds turned out for solubility kinetic.
[[record]]
compound = "CCOC(=O)CCn1cnc2ccc([N+](=O)[O-])cc2c1=O"
val = "25.2 µg/mL"

[[record]]
compound = "S=C(NCc1ccncc1)Nc1ccc(Br)cc1"
val = "> 48.3 µg/mL"

[[record]]
compound = "COc1ccc(C(=O)NCCN2CCCC2)cc1[N+](=O)[O-]"
val = "> 44 µg/mL"

[[record]]
compound = "O=c1oc2c(-c3ccc([N+](=O)[O-])cc3)cc(O)cc2s1"
val = "< 0.6 µg/mL"

[[record]]
compound = "Cc1ccc(/C=C/C(=O)Oc2ccc(C#N)cc2)o1"
val = "< 0.5 µg/mL"


Consider the additional compound presented here.
Form field: reported solubility kinetic of CC(=O)c1ccc(N2CCN(C(C)C(=O)Nc3ccc4c(c3)OCCO4)CC2)cc1 (stereo unspecified)
5.1 µg/mL

----------
Details: buffer; pH 7.4; 200.0 µM
Attribute measured: solubility kinetic (µg/mL)
Write it as a number; the unit µg/mL goes unstated.

Here is how some molecules turned out for solubility kinetic.
[[record]]
molecule = "CC(=Nc1ccccc1N)c1c(O)n(C)c(=O)n(C)c1=O"
unit_abbrev = "µg/mL"
val = 3.6

[[record]]
molecule = "Cc1c(Cl)cccc1NC(=S)NC1CCCC1"
unit_abbrev = "µg/mL"
val = 7.5

[[record]]
molecule = "CN(CC(=O)Nc1ccc(F)cc1)CC(=O)N1CCCCCC1"
unit_abbrev = "µg/mL"
val = 44.8

[[record]]
molecule = "O=C(NC(=S)Nc1ccccc1C(=O)O)c1ccc2ccccc2c1"
unit_abbrev = "µg/mL"
val = 38.2


Form field: reported solubility kinetic of O=C(Nc1ccc(S(=O)(=O)N2CCCCC2)cc1)c1ccc(Cl)nc1
7.6

Form field: reported solubility kinetic of Cc1ccc2c(CN3CCCCC3C)cc(=O)oc2c1.Cl (centres undefined)
35.6

Form field: reported solubility kinetic of COc1ccc2c(c1)C1=C(CC2)C(c2ccc(C)cc2)NC(=S)N1 (centres undefined)
10.5

Form field: reported solubility kinetic of CSc1ncccc1C(=O)OCc1ccc([N+](=O)[O-])cc1
0.9

Form field: reported solubility kinetic of N#Cc1cccc(NC(=O)CCc2ccc(S(=O)(=O)N3CCOCC3)cc2)c1
48

----------
Conditions: buffer; pH 7.4; 200.0 µM
Here, each record is paired with measured solubility kinetic data.

Here is how some compounds turned out for solubility kinetic.
[[record]]
compound = "CCOC(=O)C1=C(COC(=O)CCc2ccc(CC)cc2)NC(=O)NC1C (stereo unspecified)"
attribute_measured = "solubility kinetic"
val = "40 µg/mL"

[[record]]
compound = "CCOC(=O)c1ccc(Nc2ncccc2[N+](=O)[O-])cc1"
attribute_measured = "solubility kinetic"
val = "1 µg/mL"

[[record]]
compound = "C[N+]1(C)C2CCC1CC(OC(=O)c1ccccc1)C2.[Br-] (stereo unspecified)"
attribute_measured = "solubility kinetic"
val = "> 51 µg/mL"


Form field: reported solubility kinetic of CC(C)(C)NCC(O)COc1cccc2c1C[C@H](O)[C@H](O)C2 (stereo partly specified)
> 46.4 µg/mL

Form field: reported solubility kinetic of CN1CCN(CCCCOc2cccc3ccccc23)CC1.Cl
> 50.2 µg/mL

Form field: reported solubility kinetic of Cc1ccsc1C(=O)N1CCN(c2ncccn2)CC1
> 43.3 µg/mL

----------
Settings: buffer; pH 7.4; 200.0 µM
Attribute measured: solubility kinetic (µg/mL)
Write it as a number; the unit µg/mL goes unstated.

[[record]]
compound = "N#Cc1cccc(CN2C=NS(=O)(=O)c3ccccc32)c1"
attribute_measured = "solubility kinetic"
unit_abbrev = "µg/mL"
val = 42.2

[[record]]
compound = "COc1ccc(C(=O)Nc2cc(S(=O)(=O)N3CCCC3)ccc2Cl)cc1"
attribute_measured = "solubility kinetic"
unit_abbrev = "µg/mL"
val = 9.2

[[record]]
compound = "CCCCn1c(NC(=O)c2ccco2)c(S(=O)(=O)c2ccc(C)cc2)c2nc3ccccc3nc21"
attribute_measured = "solubility kinetic"
unit_abbrev = "µg/mL"
val = 20.2

[[record]]
compound = "Cc1ccccc1Cn1c(C)cc(C)c(C#N)c1=O"
attribute_measured = "solubility kinetic"
unit_abbrev = "µg/mL"
val = 8.1

[[record]]
compound = "Cc1cccc(CN2CCSCC2)c1"
attribute_measured = "solubility kinetic"
unit_abbrev = "µg/mL"
val = 7

[[record]]
compound = "O=c1[nH]c2cccnc2n1-c1ccc([N+](=O)[O-])cc1"
attribute_measured = "solubility kinetic"
unit_abbrev = "µg/mL"
val = 13.3

[[record]]
compound = "Cc1cc(C)cc(NC(=O)NCc2c(-c3ccccc3)noc2C)c1"
attribute_measured = "solubility kinetic"
unit_abbrev = "µg/mL"
val = 0.8

[[record]]
compound = "CCCCN(Cc1ccccc1)C1CCN(Cc2ccccc2)CC1"
attribute_measured = "solubility kinetic"
unit_abbrev = "µg/mL"
val = 27.3


Form field: reported solubility kinetic of CC(=O)Nc1ccc(SCC(=O)Nc2ccc(Cl)cn2)cc1
9.6

Form field: reported solubility kinetic of Cc1cccc(C(C)C)c1NC(=O)c1ccc(OCC2CCCO2)cc1 (centres undefined)
12.1

Form field: reported solubility kinetic of COc1ccc(NC(=O)CN(c2ccccc2OC)S(=O)(=O)c2cccs2)cc1Cl
2.9

Form field: reported solubility kinetic of O=C(/C=C/c1cccc(F)c1)N1CCN(c2ccccn2)CC1
39.4

Form field: reported solubility kinetic of O=C(OCc1cc2ccccc2[nH]c1=O)c1cccc([N+](=O)[O-])c1
0.8

Form field: reported solubility kinetic of CC(=O)Nc1cccc(-c2csc(Nc3ncccn3)n2)c1
3.5

----------
Conditions: buffer; pH 7.4; 200.0 µM
Attribute measured: solubility kinetic (µg/mL)
Write it as a number; the unit µg/mL goes unstated.

Here is how some molecules turned out for solubility kinetic.
[[record]]
molecule = "COc1ccc(C2SCC(=O)N2c2ccc(OC)cc2)cc1 (stereo unspecified)"
attribute_measured = "solubility kinetic"
val = 45.7

[[record]]
molecule = "Cc1ccc(NC(=S)Nc2ccc3[nH]c(=O)[nH]c3c2)cc1C"
attribute_measured = "solubility kinetic"
val = 17.9


Form field: reported solubility kinetic of O=C(CN1C(=O)NC2(CCCC2)C1=O)NCC1CCCO1 (stereo unspecified)
38.5

Form field: reported solubility kinetic of COc1ccc(OCC(=O)Nc2ccc3c(c2)n(C)c(=O)n3C)cc1
48.2

----------
Settings: buffer; pH 7.4; 200.0 µM
Here, each record is paired with measured solubility kinetic data.
Write it as a number; the unit µg/mL goes unstated.

[[record]]
molecule = "O=C1CN(C(=O)COc2ccc(Cl)cc2Cl)c2ccccc2N1"
val = 3.1

[[record]]
molecule = "CCN1CCN(c2nc(NCCO)c3ccccc3n2)CC1.Cl"
val = 48

[[record]]
molecule = "COC1c2ccccc2C(=O)N1Cc1ccc(F)cc1 (stereo not given)"
val = 37.4

[[record]]
molecule = "O=C(CCN1C(=O)c2cccc([N+](=O)[O-])c2C1=O)Nc1nccs1"
val = 49.3

[[record]]
molecule = "Oc1ccc2ccccc2c1CNc1ccc(Br)cc1"
val = 5.5

[[record]]
molecule = "CC1CCN(Cc2nc(-c3ccc(Cl)cc3)no2)CC1"
val = 2.2

[[record]]
molecule = "COC(=O)CC(CP(=O)([O-])CN(C)C=O)C(=O)OC (stereo not given)"
val = 27.9

[[record]]
molecule = "Cc1cc(NC(=O)c2cc(-c3ccc(O)cc3)on2)no1"
val = 0.5

[[record]]
molecule = "CCOc1ccc(NC(=O)NCc2ccccn2)cc1"
val = 35.6

[[record]]
molecule = "S=C(NCc1ccco1)Nc1cccc(Cl)c1Cl"
val = 11.3


Form field: reported solubility kinetic of O=C1c2ccccc2-c2cccc(C(=O)N3CCCCC3)c21
36.7

Form field: reported solubility kinetic of CCOc1ncccc1C(=O)NCCCSc1ccccc1
34.2

Form field: reported solubility kinetic of Cc1ccnc(NCc2ccccc2O)c1
23

Form field: reported solubility kinetic of C=CCn1c(SCC(C)=O)nc2scc(-c3ccc(C)o3)c2c1=O
1.6

Form field: reported solubility kinetic of COc1ccccc1/C=C/C(=O)OCC(=O)Nc1ccc(Cl)cn1
1.1

----------
Details: buffer; pH 7.4; 200.0 µM
Attribute measured: solubility kinetic (µg/mL)
Write it as a number; the unit µg/mL goes unstated.

[[record]]
smiles_text = "Cc1ccc(NC(=O)C2=CN3CCS(=O)(=O)N=C3C=C2)cc1"
val = 12.7


Form field: reported solubility kinetic of CCc1ccc(/C=C\C(=O)N2CCCC2)cc1
28.3

Form field: reported solubility kinetic of COc1cccc(CNc2ccc([N+](=O)[O-])cc2C)c1
1.3

----------
Conditions: buffer; pH 7.4; 200.0 µM
Consider the reported solubility kinetic of an entry and match it to a band in lower = under 10 µg/mL, middle = from 10 µg/mL up to 40 µg/mL, upper = 40 µg/mL and over

Solved entries:
[[record]]
molecule = "COc1ccc(C(=O)NCCCN2CCOCC2)cc1"
class = "upper"

[[record]]
molecule = "O=C(Cc1ccc(Cl)cc1Cl)Nc1ccncc1"
class = "middle"

[[record]]
molecule = "CC(C)C(Nc1ccc(C(F)(F)F)cc1[N+](=O)[O-])C(=O)O (centres undefined)"
class = "upper"

[[record]]
molecule = "O=C(/C=C/c1ccccc1)Nc1sc2c(c1C(=O)O)CCC2"
class = "upper"

[[record]]
molecule = "CC(C)CC1NC(=O)N(CC(=O)NC2CCCc3ccccc32)C1=O (centres undefined)"
class = "upper"


Bin? CC(C(=O)O)N1c2cccc3cccc(c23)S1(=O)=O (centres undefined)
upper
